- testTarget: T1, MotA S80R (bacteriophage T4, UniProt P22915 1-211, S80R)
- T1 sequence: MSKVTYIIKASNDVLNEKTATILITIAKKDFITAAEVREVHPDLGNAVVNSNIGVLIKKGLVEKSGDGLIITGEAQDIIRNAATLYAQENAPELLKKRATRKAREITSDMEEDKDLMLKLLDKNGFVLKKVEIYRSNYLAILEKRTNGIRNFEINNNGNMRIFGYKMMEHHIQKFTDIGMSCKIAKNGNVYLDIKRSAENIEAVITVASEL
- assayRemarks: EMSA
pKd: −log10 of the molar value.
measurementLabel: pKd

Reported pKd for 21 bp MotA box DNA (dsDNA) DNA 1: GAATTATTTGCTTTAGATTAC DNA 2: GTAATCTAAAGCAAATAATTC was ~6.22
